# Test system: NCI-H1651
# assay notes: relative viability (nuclei count vs DMSO), 5 days (fraction); higher = more cells survive
# condition parameters: first compound 4 µM
Listing: relative viability of selected compounds
Answer as a number with no unit attached.

These recorded examples may help you get a feel for the data.
{"compound": "C[C@@H]1CN(CC(=O)Nc2ccc3c(c2)Cc2cccc(-c4cc(=O)cc(N5CCOCC5)o4)c2S3)C[C@H](C)O1 + N=C(N)NC(=N)NCCc1ccccc1 [Phenformin] (partner 250 µM)", "system": "NCI-H1651", "relative viability": 0.313}
{"compound": "COc1cc(N2CCC(C(N)=O)CC2)ccc1Nc1nc(N)c(Cl)c(Nc2ccccc2S(=O)(=O)C(C)C)n1 [HG-5-88-01] + COc1cccc2cc(-c3nc([C@H]4CC[C@H](C(=O)O)CC4)n4ncnc(N)c34)[nH]c12 [OSI-027] (partner 0.5 µM)", "system": "NCI-H1651", "relative viability": 0.58}
{"compound": "C[C@@H]1CN(CC(=O)Nc2ccc3c(c2)Cc2cccc(-c4cc(=O)cc(N5CCOCC5)o4)c2S3)C[C@H](C)O1 + C[C@@H](Oc1cc(-c2cnn(C3CCNCC3)c2)cnc1N)c1c(Cl)ccc(F)c1Cl [Crizotinib] (partner 1 µM)", "system": "NCI-H1651", "relative viability": 0.882}
{"compound": "Clc1ccc(Nc2nnc(Cc3ccncc3)c3ccccc23)cc1 [Vatalanib] + CC1(C)CCC(c2ccc(Cl)cc2)=C(CN2CCN(c3ccc(C(=O)NS(=O)(=O)c4ccc(N[C@H](CCN5CCOCC5)CSc5ccccc5)c(S(=O)(=O)C(F)(F)F)c4)cc3)CC2)C1 [Navitoclax] (partner 0.5 µM)", "system": "NCI-H1651", "relative viability": 1.08}

Asked: Write down the reported relative viability of COc1cc(N2CCC(C(N)=O)CC2)ccc1Nc1nc(N)c(Cl)c(Nc2ccccc2S(=O)(=O)C(C)C)n1 [HG-5-88-01] + Cc1nc(NC(=O)N2CCC[C@H]2C(N)=O)sc1-c1ccnc(C(C)(C)C(F)(F)F)c1 [Alpelisib] (partner 2 µM) , test system: NCI-H1651.
Given back: 1.2

* * *

Listed compounds paired with reported relative viability
# Test system: NCI-H23
# assay notes: relative viability (nuclei count vs DMSO), 5 days (fraction); higher = more cells survive
# condition parameters: first compound 0.1265 µM
Form field (numeric): enter value without unit.

{"compound": "COc1cc(N2CCC(C(N)=O)CC2)ccc1Nc1nc(N)c(Cl)c(Nc2ccccc2S(=O)(=O)C(C)C)n1 [HG-5-88-01] + CS(=O)(=O)N1CCN(Cc2cc3nc(-c4cccc5[nH]ncc45)nc(N4CCOCC4)c3s2)CC1 [Pictilisib] (partner 1 µM)", "system": "NCI-H23", "quantitative result": 0.572}
{"compound": "Clc1ccc(Nc2nnc(Cc3ccncc3)c3ccccc23)cc1 [Vatalanib] + CC(=O)Nc1cccc(-n2c(=O)n(C3CC3)c(=O)c3c(Nc4ccc(I)cc4F)n(C)c(=O)c(C)c32)c1 [Trametinib] (partner 0.02 µM)", "system": "NCI-H23", "quantitative result": 0.296}
{"compound": "COc1cc(N2CCC(C(N)=O)CC2)ccc1Nc1nc(N)c(Cl)c(Nc2ccccc2S(=O)(=O)C(C)C)n1 [HG-5-88-01] + CS(=O)(=O)CCNCc1ccc(-c2ccc3ncnc(Nc4ccc(OCc5cccc(F)c5)c(Cl)c4)c3c2)o1 [Lapatinib] (partner 2 µM)", "system": "NCI-H23", "quantitative result": 1.23}

Let's switch to this compound now.
Asked: Query: relative viability; subject: Clc1ccc(Nc2nnc(Cc3ccncc3)c3ccccc23)cc1 [Vatalanib] + COc1cccc2cc(-c3nc([C@H]4CC[C@H](C(=O)O)CC4)n4ncnc(N)c34)[nH]c12 [OSI-027] (partner 0.5 µM)
Given back: 0.613

Values from the supplement of paper PMC10307832
